Origin of values: patent US20100029654A1

System: primary cortico-hippocampal neuron cultures
Assay: MTT in primary screening
Conditions: primary screening; table sorted by Aβ1-42
Where a name gives a salt, the structure may show the parent alone.
MTT (% of ctl) for assorted molecules

Answered cases to consult:
molecule="Cc1ccc(N(CC2=NCCN2)c2cccc(O)c2)cc1 [Phentolamine Hydrochloride]" measured_on="primary cortico-hippocampal neuron cultures" measured_value="110.3 % of ctl"
molecule=CCN1C[C@]2(C)CC[C@H](OC)[C@@]34C1[C@]1(OCO[C@@]15C[C@H](OC)[C@H]1C[C@]3(O)[C@@H]5[C@H]1OC)[C@@H](OC(C)=O)[C@H]24 measured_on="primary cortico-hippocampal neuron cultures" measured_value="99.4 % of ctl"
molecule=CO[C@]12C[C@@H](COC(=O)c3cncc(Br)c3)CN(C)[C@@H]1Cc1cn(C)c3cccc2c13 measured_on="primary cortico-hippocampal neuron cultures" measured_value="99.8 % of ctl"

QUERY: Give MTT (% of ctl) for this entry on primary cortico-hippocampal neuron cultures: CCC[C@H](N[C@@H](C)C(=O)N1[C@H](C(=O)O)C[C@@H]2CCCC[C@@H]21)C(=O)OCC
RESULT: 95.3 % of ctl

QUERY: Give MTT (% of ctl) for this entry on primary cortico-hippocampal neuron cultures: C=CCSCC1Nc2cc(Cl)c(S(N)(=O)=O)cc2S(=O)(=O)N1 (stereo not shown) [Althiazide]
RESULT: 99.7 % of ctl

QUERY: Give MTT (% of ctl) for this entry on primary cortico-hippocampal neuron cultures: CCOC(=O)NNc1nncc2ccccc12 [Todralazine Hydrochloride]
RESULT: 99.5 % of ctl

QUERY: Give MTT (% of ctl) for this entry on primary cortico-hippocampal neuron cultures: CCC(C(N)=O)c1ccccc1 (stereo not shown) [Fenbutyramide]
RESULT: 108.6 % of ctl

QUERY: Give MTT (% of ctl) for this entry on primary cortico-hippocampal neuron cultures: COc1cc2c3cc1Oc1c(OC)c(OC)cc4c1[C@@H](Cc1cccc(c1)Oc1ccc(c(O)c1)C[C@@H]3N(C)CC2)N(C)CC4 [Berbamine Hydrochloride]
RESULT: 97.6 % of ctl

* * *

Tested on: Aβ1-42
Assay: Aβ1-42 content in conditioned medium of primary cortico-hippocampal neuron cultures from Tg2576 mice (ELISA; primary and secondary dose-response screening)
Type: cell-based, mouse
Details: Mus musculus, Neuron, 24 h, primary screening, drug 100 μM, Tg2576 neuron cultures; table sorted by Aβ1-42; read-out: Ab1-42 (% of ctl)
Structures can show the parent of a compound that is named as a salt.
activity at 100 µM for assorted compounds
Answer in %, number only, no unit symbol.

compound="C[C@]12CCC(=O)C=C1C=C[C@@H]1[C@@H]2CC[C@@]2(C)[C@H]1CC[C@@]2(O)CCC(=O)O [Canrenoic Acid, Potassium Salt]" u=% measured_value=106

QUERY: Output activity at 100 µM of N=C(N)NC(=O)c1nc(Cl)c(N)nc1N [Amiloride Hydrochloride]
RESULT: 47.1

QUERY: Output activity at 100 µM of CC(C)NCC(O)COc1cccc2[nH]ccc12 (stereo not shown) [Pindolol]
RESULT: 46.1

QUERY: Output activity at 100 µM of Cn1cnc2c1c(=O)[nH]c(=O)n2C [Theobromine]
RESULT: 117

* * *

LDH (% of ctl) for assorted molecules
Tested on: primary cortico-hippocampal neuron cultures
Assay: lactate dehydrogenase (LDH) activity assay in parallel neuron cultures
Conditions: Primary Screening; table sorted by Aβ1-40
Structures can show the parent of a compound that is named as a salt.

Answered cases to consult:
molecule="CNC1(C)C2CCC(C2)C1(C)C (centres unmarked) [Mecamylamine Hydrochloride]" reported_property="LDH (% of ctl)" measured_value="97.0 % of ctl"
molecule="CCOc1ccccc1OCCN[C@H](C)Cc1ccc(OC)c(S(N)(=O)=O)c1.Cl [Tamsulosin Hydrchloride]" reported_property="LDH (% of ctl)" measured_value="102.2 % of ctl"
molecule="C1CCC(C(CC2CCCCN2)C2CCCCC2)CC1 (centres unmarked) [Perhexiline Maleate]" reported_property="LDH (% of ctl)" measured_value="1065.9 % of ctl"
molecule="CC1=NS(=O)(=O)c2cc(Cl)ccc2N1 [Diazoxide]" reported_property="LDH (% of ctl)" measured_value="112.0 % of ctl"

Now consider the entry below.
QUERY: Give LDH (% of ctl) for this entry on primary cortico-hippocampal neuron cultures: CC(C)N(CCC(C(N)=O)(c1ccccc1)c1ccccn1)C(C)C (centres unmarked) [Disopyramide Phosphate]
RESULT: 125.8 % of ctl
